Target Or Test System: human CD3e (T-cell surface glycoprotein CD3 epsilon chain) (human, UniProt P07766 23-207)
Procedure Details: cell-based or functional assay
Measured EC50, luciferase of Jurkat-Luc-NFAT cells; antibody from supernatant by item
Parameter: EC50, luciferase of Jurkat-Luc-NFAT cells; antibody from supernatant

Binder | Endpoint Value
1B1-H1K1-IgG1-LALA (antibody, V domains shown, Humanized; human IgG1 with LALA mutations; also called H1K1 (humanized 1B1)) VH: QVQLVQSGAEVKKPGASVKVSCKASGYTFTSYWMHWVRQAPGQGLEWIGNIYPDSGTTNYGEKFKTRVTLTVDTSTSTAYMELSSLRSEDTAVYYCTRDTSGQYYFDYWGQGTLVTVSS VL: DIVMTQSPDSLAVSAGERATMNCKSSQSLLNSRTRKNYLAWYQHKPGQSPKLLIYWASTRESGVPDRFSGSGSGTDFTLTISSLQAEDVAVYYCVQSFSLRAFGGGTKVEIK | 1.42 µg/mL
1B1-H1K3-IgG1-LALA (antibody, V domains shown, Humanized; human IgG1 with LALA mutations; also called H1K3 (humanized 1B1)) VH: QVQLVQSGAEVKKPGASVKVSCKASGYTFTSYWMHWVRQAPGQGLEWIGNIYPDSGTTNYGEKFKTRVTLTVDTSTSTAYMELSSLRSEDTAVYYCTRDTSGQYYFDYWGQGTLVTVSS VL: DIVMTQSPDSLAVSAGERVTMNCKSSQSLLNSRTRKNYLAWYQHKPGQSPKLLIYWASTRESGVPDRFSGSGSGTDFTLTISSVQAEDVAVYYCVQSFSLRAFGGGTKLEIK | > 6.94 µg/mL
1B1-H2K2-IgG1-LALA (antibody, V domains shown, Humanized; human IgG1 with LALA mutations; also called H2K2 (humanized 1B1)) VH: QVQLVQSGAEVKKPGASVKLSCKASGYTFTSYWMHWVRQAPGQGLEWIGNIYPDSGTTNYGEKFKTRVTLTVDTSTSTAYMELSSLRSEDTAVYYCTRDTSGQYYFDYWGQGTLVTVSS VL: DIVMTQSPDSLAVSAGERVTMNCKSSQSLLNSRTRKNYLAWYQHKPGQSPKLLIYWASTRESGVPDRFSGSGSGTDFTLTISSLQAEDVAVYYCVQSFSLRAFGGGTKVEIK | > 5.24 µg/mL
